- TARGET UNDER TEST: DLL3 endogenously expressed on NCI-H82 cells (UniProt Q9NYJ7)
- Sequence (Q9NYJ7 27-618): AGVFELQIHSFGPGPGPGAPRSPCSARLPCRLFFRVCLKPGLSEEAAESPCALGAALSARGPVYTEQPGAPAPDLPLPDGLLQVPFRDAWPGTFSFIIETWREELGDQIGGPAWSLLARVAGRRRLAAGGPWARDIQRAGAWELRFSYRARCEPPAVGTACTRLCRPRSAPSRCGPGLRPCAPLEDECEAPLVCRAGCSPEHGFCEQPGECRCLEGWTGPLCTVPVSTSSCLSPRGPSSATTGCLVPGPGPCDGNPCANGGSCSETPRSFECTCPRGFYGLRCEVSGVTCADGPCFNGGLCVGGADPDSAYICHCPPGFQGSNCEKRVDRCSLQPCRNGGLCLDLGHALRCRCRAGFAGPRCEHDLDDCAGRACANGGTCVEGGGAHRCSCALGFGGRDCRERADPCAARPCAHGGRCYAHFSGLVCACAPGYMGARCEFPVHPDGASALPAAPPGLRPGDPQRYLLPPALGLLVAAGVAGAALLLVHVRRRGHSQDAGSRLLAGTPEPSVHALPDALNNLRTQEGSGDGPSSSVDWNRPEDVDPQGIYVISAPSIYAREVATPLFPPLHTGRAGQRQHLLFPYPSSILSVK
- ASSAY REMARKS: FACS on NCI-H82 cells; antibody 4 nM
REPORTED PROPERTY: MFI

For orientation, consider the following solved cases.
>  <BINDER>
Hab015VL5VH5a-hFc (scFv, part only; not given: scFv linker and human IgG1 Fc, V domains shown, not shown: another chain or arm of the molecule; a dimerising Fc or GST; small tags and cut ends) VL: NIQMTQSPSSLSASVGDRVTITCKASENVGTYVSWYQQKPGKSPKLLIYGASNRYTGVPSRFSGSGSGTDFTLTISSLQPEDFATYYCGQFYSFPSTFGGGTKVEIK VH: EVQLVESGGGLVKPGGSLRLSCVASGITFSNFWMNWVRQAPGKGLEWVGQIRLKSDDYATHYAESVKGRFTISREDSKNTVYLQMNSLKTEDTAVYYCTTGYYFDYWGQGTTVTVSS

>  <MFI>
848

$$$$
>  <BINDER>
Hab008L3H2a-hFc (scFv, part only; not given: VL-VH linker and human IgG1 Fc, V domains shown, not shown: another chain or arm of the molecule; a dimerising Fc or GST; small tags and cut ends) VL: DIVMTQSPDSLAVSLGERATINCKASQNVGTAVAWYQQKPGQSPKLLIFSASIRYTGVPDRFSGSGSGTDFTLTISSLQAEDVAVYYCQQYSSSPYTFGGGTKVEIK VH: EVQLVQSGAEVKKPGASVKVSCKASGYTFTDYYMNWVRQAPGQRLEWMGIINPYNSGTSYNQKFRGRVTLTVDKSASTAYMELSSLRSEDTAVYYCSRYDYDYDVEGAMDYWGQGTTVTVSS

>  <MFI>
307

$$$$

// below: MFI requested for another binder
Q: Entry under review: Hab006VL4VH2-hFc (Fc fusion, part only; not given: Linker and human IgG1 Fc, not shown: a dimerising Fc or GST) chain, part: DIVMTQSPDSLAVSLGERATINCRATKSISKYLAWYQQKPGQTNKLLIFSGSTLQSGVPDRFSGSGSGTDFTLTISSLQAEDVAVYYCQQHHEYPYTFGGGTKVEIKEVQLVQSGAEVKKPGASVKVSCKASGYTFTSYWMHWVRQAPGQRLEWMGVIDPSDSLANYNQEFKGRVTLTVDTSASTAYMELSSLRSEDTAVYYCARDSTVVAPMDYWGQGTTVTVSS . Reported MFI?
Result: 445

// data source = patent EP4786492A1
